Where do these numbers come from? They come from a collection of fitness landscapes (doi:10.1016/j.celrep.2020.107928).

B1: Caulobacter ParB omega fusion; a variant is named by its letters at X, in order, B8GW30 (parent)
chain: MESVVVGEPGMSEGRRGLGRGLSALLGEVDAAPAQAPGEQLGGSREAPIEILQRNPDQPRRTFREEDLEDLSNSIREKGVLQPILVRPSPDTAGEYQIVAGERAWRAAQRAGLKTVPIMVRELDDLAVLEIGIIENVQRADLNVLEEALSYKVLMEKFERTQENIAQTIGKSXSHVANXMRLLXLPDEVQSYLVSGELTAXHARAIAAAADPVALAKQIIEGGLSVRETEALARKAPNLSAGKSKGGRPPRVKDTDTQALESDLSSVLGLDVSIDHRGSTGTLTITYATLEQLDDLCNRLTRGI

variants of: B1; test: one-hybrid fitness for binding NBS DNA (the Noc-binding site; scaled: cognate 1, non-cognate 0); higher = stronger binding; conditions: with NBS DNA site
The full ranking holds about 81,000 sequences; the median of “one-hybrid fitness for binding NBS DNA” is about -0.1, and the highest 2% start at about 0.36. The entries come from a sample that favours the highest values as a whole.
So I've got a bunch of variants here, and I need their one-hybrid fitness for binding NBS DNA values.

Exercise: # one-hybrid fitness for binding NBS DNA lookup, item RVGN
Solution: ≤ 0.2

Exercise: // same read-out, input: RLNH
Solution: 0.201

Exercise: // same read-out, input: RLMM
Solution: ≤ 0.2

Exercise: // same read-out, input: HSRL
Solution: ≤ 0.2

Exercise: // same read-out, input: RLSN
Solution: ≤ 0.2

Exercise: // same read-out, input: MPKT
Solution: ≤ 0.2

Exercise: // same read-out, input: RKSP
Solution: ≤ 0.2

Exercise: // same read-out, input: RVHY
Solution: ≤ 0.2

Exercise: // same read-out, input: RHSN
Solution: ≤ 0.2

Exercise: // same read-out, input: SLCY
Solution: ≤ 0.2

Exercise: // same read-out, input: RKSN
Solution: ≤ 0.2

Exercise: // same read-out, input: RVHP
Solution: ≤ 0.2

Exercise: // same read-out, input: RVFT
Solution: 0.271

Exercise: // same read-out, input: RLSS
Solution: 0.411

Exercise: // same read-out, input: RLQD
Solution: ≤ 0.2

Exercise: // same read-out, input: THKK
Solution: ≤ 0.2

Exercise: // same read-out, input: RVHH
Solution: ≤ 0.2

Exercise: // same read-out, input: RLDT
Solution: ≤ 0.2

Exercise: // same read-out, input: QMHW
Solution: ≤ 0.2

Exercise: // same read-out, input: RLQN
Solution: ≤ 0.2

Exercise: // same read-out, input: RLSD
Solution: ≤ 0.2

Exercise: // same read-out, input: RVGT
Solution: 0.491

Exercise: // same read-out, input: YRGS
Solution: ≤ 0.2

Exercise: // same read-out, input: RLNT
Solution: 0.528

Exercise: // same read-out, input: RPCT
Solution: ≤ 0.2

Exercise: // same read-out, input: RFSS
Solution: 0.231

Exercise: // same read-out, input: RSCT
Solution: 0.281

Exercise: // same read-out, input: DMKY
Solution: ≤ 0.2

Exercise: // same read-out, input: WQMG
Solution: ≤ 0.2

Exercise: // same read-out, input: RVHS
Solution: 0.461
